Taken from the Immune Epitope Database (IEDB).

Target: HLA-A*02:12
Experiment: IEDB peptide-MHC binding, purified MHC/direct/fluorescence; filed as Kd, often an IC50 or EC50 that approximates it; bounds were set here for any values at or beyond the usual limits of such assays
Settings: source organism: Influenza A virus (A/ferret/Maryland/P10-UMD/2008(H9N2))

# seq, Kd
records = [
    ("NMDKAVKLY", "≥ 20 µM"),
]

---

Biological target: HLA-B*58:01
Assay: IEDB peptide-MHC binding, purified MHC/direct/fluorescence; filed as Kd, often an IC50 or EC50 that approximates it; bounds were set here for any values at or beyond the usual limits of such assays
Conditions: source organism: Yersinia pestis Nepal516
test_readout: Kd

# seq, test_readout, result
rows = [
    ("ETIFTVLAL", "Kd", "≥ 20 µM"),
]
